Ref: ChEMBL document CHEMBL5726856

- assayed_system: Serine/threonine-protein kinase ULK1 (Homo sapiens, UniProt O75385)
- Sequence (O75385 whole entry): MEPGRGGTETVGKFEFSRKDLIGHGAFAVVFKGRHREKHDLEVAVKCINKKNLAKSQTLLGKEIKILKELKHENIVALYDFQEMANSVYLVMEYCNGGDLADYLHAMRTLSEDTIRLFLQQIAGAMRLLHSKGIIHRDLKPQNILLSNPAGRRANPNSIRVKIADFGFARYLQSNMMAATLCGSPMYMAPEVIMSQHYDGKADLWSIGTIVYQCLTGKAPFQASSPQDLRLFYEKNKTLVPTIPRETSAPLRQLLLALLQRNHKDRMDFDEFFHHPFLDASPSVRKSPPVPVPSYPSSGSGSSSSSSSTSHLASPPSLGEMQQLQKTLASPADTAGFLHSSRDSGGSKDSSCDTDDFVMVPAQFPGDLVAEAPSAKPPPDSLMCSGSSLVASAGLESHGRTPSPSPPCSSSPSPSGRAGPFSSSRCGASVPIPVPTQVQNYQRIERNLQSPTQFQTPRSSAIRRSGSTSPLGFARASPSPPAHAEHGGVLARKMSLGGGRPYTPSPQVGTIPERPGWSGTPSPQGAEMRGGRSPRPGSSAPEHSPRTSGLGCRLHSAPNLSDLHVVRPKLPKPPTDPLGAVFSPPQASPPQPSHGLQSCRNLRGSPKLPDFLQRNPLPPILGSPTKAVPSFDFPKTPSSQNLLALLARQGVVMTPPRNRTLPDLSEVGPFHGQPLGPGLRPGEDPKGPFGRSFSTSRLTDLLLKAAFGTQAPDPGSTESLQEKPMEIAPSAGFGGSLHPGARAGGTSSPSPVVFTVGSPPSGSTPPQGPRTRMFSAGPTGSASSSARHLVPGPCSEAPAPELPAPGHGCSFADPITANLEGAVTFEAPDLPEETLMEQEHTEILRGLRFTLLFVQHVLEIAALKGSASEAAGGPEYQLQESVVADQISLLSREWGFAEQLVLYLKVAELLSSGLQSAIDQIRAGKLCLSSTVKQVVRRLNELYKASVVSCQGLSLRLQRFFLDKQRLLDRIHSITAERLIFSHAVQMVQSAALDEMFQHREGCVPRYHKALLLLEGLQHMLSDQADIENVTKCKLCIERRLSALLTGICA
- method_notes: ULK1 inhibition assay: Gamma-32P assays to measure ULK1 kinase activity were performed as previously described. Briefly, Flag ULK1 was transfected into HEK293T cells and 20 hours later treated as indicated. The immmunoprecipitate was washed in IP buffer 3 times, and washed in kinase buffer (25 mM MOPS, pH 7.5, 1 mM EGTA, 0.1 mM Na3VO4, 15 mM MgCl2,). Hot and cold ATP were added at a 100 μM final concentration. As substrates, GST or the recombinant protein GST-Atg101 purified from E. coli were used at 1 μg for each reaction. Reactions were boiled, run out on SDS page gel. The gel was dried, and imaged using PhosphoImager software. For cold assays to asses ULK1, Flag ULK1 which was transiently overexpressed and immunoprecipited from HEK293T cells. Reactions were then run out on SDS page gel, transferred to PVDF membrane and blotted for total levelsFluorescence MicroscopyVps34flox/flox MEFs were reconstituted with Flag-VPS34 and either p40FX or GFP-DFCP1. 48 hours post infection with adenovirus expressing Cre recombinase (MOI of 100), cells were plated on glass coverslips at a density of 3×10^5 cells per well in 6-well tissue culture plates. 18 h later, cells were fixed in 4% PFA in PBS for 10 minutes and permeabilized in 0.2% Triton in PBS for 10 minutes. The following primary antibodies were used: mouse anti-Myc epitope and LC3B XP antibody (2276 and 3868 respectively, Cell Signaling Technologies). Secondary antibodies were anti-rabbit Alexa488 and anti-mouse Alexa594 (Molecular Probes, 1:1000. Cells were then fixed and counter stained with DAPI. Coverslips were mounted in FluoromountG (SouthernBiothech). Images were acquired on a Zeiss Axioplan2 epifluorescence microscope coupled to the Openlab software. Confocal images of mitotracker were taken on Zeiss LSM 710 laser scanning confocal microscope. 10 random fields per condition were acquired using the 100× objective and representative images shown. Glass coverslips were mounted directly on plate with FluoromountG and images taken on Zeiss Axioplan2 epifluorescence microscope.
pIC50: −log10 of the molar value.
value_type: pIC50

Here is how some compounds turned out for pIC50.
CNC(=O)Cc1ccccc1Oc1nc(Nc2cc(OC)c(OC)c(OC)c2)ncc1Br | < 5.70
FC(F)(F)c1cnc(Nc2cccc(Oc3ccccc3)c2)nc1Nc1ccc2c(c1)OCO2 | < 5.70
Oc1nc(Nc2cnc3[nH]ccc3c2)ncc1C(F)(F)F | < 5.70
COc1ccc(Nc2ncc(C(F)(F)F)c(Nc3ccc4c(c3)OCO4)n2)cc1 | > 6.70

// switching to the query compound
Field pIC50 (entry CNC(=O)c1ccccc1Oc1nc(Nc2ccc3c(c2)CCC(=O)N3)ncc1Br ) reads < 5.70

====

Recorded pIC50 by entry
- assayed_system: Serine/threonine-protein kinase ULK1 (Homo sapiens)
- method_notes: ULK1 inhibition assay: Gamma-32P assays to measure ULK1 kinase activity were performed as previously described. Briefly, Flag ULK1 was transfected into HEK293T cells and 20 hours later treated as indicated. The immmunoprecipitate was washed in IP buffer 3 times, and washed in kinase buffer (25 mM MOPS, pH 7.5, 1 mM EGTA, 0.1 mM Na3VO4, 15 mM MgCl2,). Hot and cold ATP were added at a 100 μM final concentration. As substrates, GST or the recombinant protein GST-Atg101 purified from E. coli were used at 1 μg for each reaction. Reactions were boiled, run out on SDS page gel. The gel was dried, and imaged using PhosphoImager software. For cold assays to asses ULK1, Flag ULK1 which was transiently overexpressed and immunoprecipited from HEK293T cells. Reactions were then run out on SDS page gel, transferred to PVDF membrane and blotted for total levelsFluorescence MicroscopyVps34flox/flox MEFs were reconstituted with Flag-VPS34 and either p40FX or GFP-DFCP1. 48 hours post infection with adenovirus expressing Cre recombinase (MOI of 100), cells were plated on glass coverslips at a density of 3×10^5 cells per well in 6-well tissue culture plates. 18 h later, cells were fixed in 4% PFA in PBS for 10 minutes and permeabilized in 0.2% Triton in PBS for 10 minutes. The following primary antibodies were used: mouse anti-Myc epitope and LC3B XP antibody (2276 and 3868 respectively, Cell Signaling Technologies). Secondary antibodies were anti-rabbit Alexa488 and anti-mouse Alexa594 (Molecular Probes, 1:1000. Cells were then fixed and counter stained with DAPI. Coverslips were mounted in FluoromountG (SouthernBiothech). Images were acquired on a Zeiss Axioplan2 epifluorescence microscope coupled to the Openlab software. Confocal images of mitotracker were taken on Zeiss LSM 710 laser scanning confocal microscope. 10 random fields per condition were acquired using the 100× objective and representative images shown. Glass coverslips were mounted directly on plate with FluoromountG and images taken on Zeiss Axioplan2 epifluorescence microscope.
pIC50: −log10 of the molar value.

Please review the following examples before continuing.
COc1cc(Nc2ncc(Br)c(Oc3cccc4ccncc34)n2)cc(OC)c1OC | < 5.70
COc1ccc(Nc2ncc(C(F)(F)F)c(NC3CC3)n2)cc1OC | > 6.70
COc1cc(Nc2nc(Oc3cccc4cc[nH]c34)ncc2Br)cc(O)c1OC | < 5.70

Lab book: pIC50 of FC(F)(F)c1cnc(Nc2cccc(Cl)c2Cl)nc1Nc1ccc2c(c1)OCO2 noted as < 5.70

response.value for COc1cc(Nc2nc(Oc3cccc4c3CCCC4)ncc2Br)cc(O)c1OC (field: pIC50) = < 5.70

pIC50 reading for FC(F)(F)c1cnc(Nc2ccc(-n3cccc3)cc2)nc1Nc1ccc2c(c1)OCO2 : > 6.70

What the record says about COCC(C)(CN(C)C)Nc1nc(Nc2ccc3c(c2)CCC(=O)N3)ncc1C(F)(F)F (configuration not stated) : pIC50 is < 5.70

Briefly, pIC50 measured for O=C1CCc2cc(Nc3ncc(C(F)(F)F)c(NCCCNC(=O)C4CC4)n3)ccc2N1 : > 6.70

Lookup result for OCc1ccccc1Nc1nc(Nc2cc(F)c(F)c(F)c2)ncc1Br ; measured pIC50: < 5.70

# compound CNC(=O)c1ccc(OC)cc1Oc1nc(Nc2cc(O)c(OC)c(OC)c2)ncc1Br ; its pIC50 = < 5.70

pIC50 reading for COc1cc(Nc2ncc(Br)c(Oc3cccc4c3CCCC4)n2)cc(OC)c1OC : < 5.70

The compound identified as COc1cc(Nc2ncc(Br)c(Oc3ccccc3NS(C)(=O)=O)n2)cc(OC)c1OC registered its pIC50 at < 5.70

Nc1ccccc1Oc1nc(Nc2ccc3c(c2)OCO3)ncc1Br yielded pIC50 of > 6.70

pIC50 recorded for this compound, COc1cc(Nc2nc(Oc3cccc4c3N(C(C)=O)CCC4)ncc2Br)cc(O)c1OC , is > 6.70

GET /value?item= O=c1[nH][nH]c(=O)c2cc(Nc3ncc(C(F)(F)F)c(NC4CC4)n3)ccc12 &field=pIC50 returns > 6.70

Looking up COc1cc(Nc2ncc(Br)c(Oc3ccccc3[S+](C)[O-])n2)cc(OC)c1OC (configuration not stated) , I found its pIC50 recorded as < 5.70

# pIC50 of COc1cc(Nc2ncc(Br)c(Oc3cccc4[nH]nnc34)n2)cc(OC)c1OC = < 5.70
